Taken from ChEMBL document CHEMBL4619773.

Target: Hemagglutinin (Influenza A virus (A/Puerto Rico/8/1934(H1N1)))
Sequence (P03452 whole entry): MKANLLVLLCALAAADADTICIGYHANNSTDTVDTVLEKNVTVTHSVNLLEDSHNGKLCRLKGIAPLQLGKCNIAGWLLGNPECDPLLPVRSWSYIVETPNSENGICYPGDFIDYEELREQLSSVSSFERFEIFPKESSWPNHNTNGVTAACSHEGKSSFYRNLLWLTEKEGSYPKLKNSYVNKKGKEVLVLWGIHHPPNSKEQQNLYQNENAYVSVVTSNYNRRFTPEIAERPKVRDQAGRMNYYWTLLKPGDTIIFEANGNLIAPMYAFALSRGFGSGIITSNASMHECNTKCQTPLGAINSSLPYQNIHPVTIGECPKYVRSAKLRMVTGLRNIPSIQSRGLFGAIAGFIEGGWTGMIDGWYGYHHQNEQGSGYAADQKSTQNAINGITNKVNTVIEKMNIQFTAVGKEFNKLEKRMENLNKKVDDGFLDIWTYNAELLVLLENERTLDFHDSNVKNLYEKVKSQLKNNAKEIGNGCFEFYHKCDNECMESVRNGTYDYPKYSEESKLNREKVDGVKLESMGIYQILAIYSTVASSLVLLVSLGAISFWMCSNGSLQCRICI
Assay: Binding affinity to Influenza A virus (A/California/04/2009(H1N1)) Hemagglutinin at 1.5625 to 50 uM by SPR assay
property_measured: pKd
Numbers only, as −log10 of the molar value.

Ask: Please give the measured pKd for this compound: CC(=O)c1cc(C)c(O)c(Cc2[nH]c3ccccc3c2Cc2c(O)c(C)cc(C(C)=O)c2O)c1O
Result: 5.16

---

Assay: Oral bioavailability in rat at 3.5 mg/kg administered as single dose
Format: ADME, organism-based
Conditions: in vivo
property_measured: bioavailability (%)
Give bare numbers, in %.

Ask: # get_value(readout='bioavailability', item= CC(=O)c1cc(C)c(O)c(Cc2[nH]c3ccccc3c2Cc2c(O)c(C)cc(C(C)=O)c2O)c1O )
Result: 1.4
